Where do the numbers come from? From PubChem BioAssay AID493200.

Test: qHTS Assay for Rab9 Promoter Activators: Initial hit validation from the primary screen
Details: Huh7 Rab9 promoter luciferase reporter, 24 h; series mostly up to 46.1 µM
Inconclusive results are not listed. Activity calls are given as the source filed them. The call rests on the fitted dose curve; in most records, active means well fitted activation curve with a large enough effect; inconclusive means small, poorly fitted or top-dose-only effect; inactive means no such curve, though single readings can be large or run the other way.
Classes used: 1 (yes) = active, 0 (no) = inactive

COMPOUND	CAT
Nc1nc(SCCO)[nH]c(=O)c1NC(=O)c1ccco1	0 (no)
NC(=O)C1(NC(=O)[C@@H]2CC3(CC(c4cccc(NC(=O)[C@@H]5CCC(=O)N5)c4)=NO3)CN2C(=O)c2ccccc2)CC1 (stereo partly specified)	0 (no)
CC(Sc1ncnc2c1cnn2-c1ccccc1)C(=O)Nc1ccc(N2CCOCC2)cc1 (stereo unspecified)	0 (no)
CCOCC(=O)Nc1c(C(=O)Nc2ccc3c(c2)OCCO3)oc2ccccc12	1 (yes)
Cn1c(CCN2CCN(c3ccccc3)CC2)nc2cc(NC(=O)c3ccco3)ccc21	0 (no)
CC(=O)NC(CCCN1C(=O)c2ccccc2C1=O)c1nnn(C)n1 (stereo unspecified)	0 (no)
O=C(CSc1nnc(-c2ccccn2)o1)Nc1ccccc1Cl	1 (yes)
Cc1cc(C)c2c(N)c(C(=O)Nc3ccc([N+](=O)[O-])cc3)sc2n1	1 (yes)
COc1ccc(NC(=O)CSc2ccc([N+](=O)[O-])cc2)cc1S(=O)(=O)N1CCOCC1	0 (no)
CCC(=O)Nc1cc(-c2cc3ccccc3oc2=O)ccc1OC	1 (yes)
CC1CC(C)CN(CC(=O)N2CCOCC2)C1 (stereo unspecified)	0 (no)
COCCNC(=O)CN1C(=O)NC(c2ccccc2)(c2ccccc2)C1=O	0 (no)
NNC(=O)c1cccc(S(=O)(=O)Nc2cc(Cl)ccc2Cl)c1	0 (no)
CC(=O)Nc1ccc(NC(=O)COc2ncnc3ccccc23)cc1	0 (no)
O=C(N/N=C/c1ccc(-c2ccc(Br)cc2)o1)c1ccc2c(c1)OCO2	0 (no)
CC(C)C1(CCNC(=O)c2cccs2)CCOC(C)(C)C1 (stereo unspecified)	0 (no)
COc1ccccc1C(=O)Nc1nnc(SCC(=O)NC2CCCC2)s1	1 (yes)
Cc1cccc(N2CCN(C(=S)c3ccccc3)CC2)c1	0 (no)
Cc1ccc(C#N)c(SCC(=O)Nc2nccs2)n1	1 (yes)
Cc1ccc(C)c(Nc2cc(C)nc3ncnn23)c1	0 (no)
Cc1ccc(N=Cc2sc(O)c3ccccc23)c(C)c1	1 (yes)
COC(=O)c1ccc(NC(=O)c2ccc3nc(C)sc3c2)cc1	1 (yes)
COc1ccc(NC(=O)CN(C)C(=O)c2ccc(=O)[nH]c2)cc1	0 (no)
C=CCOC(=O)N1CCN(c2cccc(C(F)(F)F)c2)CC1	0 (no)
Cc1ccc(C2C3=C(CC(C)(C)CC3=O)N(CCN3CCOCC3)C3=C2C(=O)CC(C)(C)C3)cc1	0 (no)
O=C(C[N+]1(CC#Cc2ccccc2)CCCCC1)c1ccccc1	0 (no)
OCCC1CN(Cc2nc3ccccc3s2)CCN1C1CCCC1 (stereo unspecified)	0 (no)
C=CCc1ccc(OCCOCCNCCOC)c(OC)c1	0 (no)
NCCOc1ccccc1-c1ccccc1	0 (no)
O=C(NCCc1ccccc1)c1cc2ncc(Br)cn2n1	1 (yes)
Cc1ccc(NC(=O)NC(=O)c2ccccc2)cc1F	1 (yes)
Cc1cc(C)cc(N(CC(=O)NC2CCCC2)C(=O)CNC(=O)c2ccco2)c1	0 (no)
CCCCn1c(CCNC(=O)c2cccs2)nc2ccccc21	0 (no)
O=C(NNC(=O)C1COc2ccccc2O1)c1ccccc1O (stereo unspecified)	0 (no)
COCCn1c(SCc2ccc(C(=O)OC)o2)nc2cc(Cl)ccc2c1=O	0 (no)
Cc1ccc(C(=O)NCc2ccc3c(c2)OCO3)cc1C	1 (yes)
Cc1ccccc1NC(=O)Cc1nc(COC(=O)CC(C)c2ccccc2)cs1 (stereo unspecified)	0 (no)
CCOc1cc(C2C(C#N)=C(N)Oc3n[nH]c(C)c32)ccc1OCCN1CCOCC1 (stereo unspecified)	0 (no)
CC1CCCN(S(=O)(=O)c2ccc(C(=O)Nc3nnc(-c4ccncc4)o3)cc2)C1 (stereo unspecified)	0 (no)
CN(C)C(CNC(=O)CNC(=O)c1ccc2ccccc2c1)c1ccccc1 (stereo unspecified)	0 (no)
O=C(c1cc2cc([N+](=O)[O-])ccc2oc1=O)n1cccn1	0 (no)
CC(C)(C)NC(=S)NNC(=O)c1ccc2ncccc2c1	1 (yes)
CC1CCc2sc(C(=O)NNC(=S)NC3CC3)cc2C1 (stereo unspecified)	1 (yes)
O=C(Nc1ccc(-c2nc3cccnc3s2)cc1)c1ccc(Cl)nc1	1 (yes)
O=C(O)C1=CC[C@@H](c2ccc(Cl)cc2)N(S(=O)(=O)c2ccc(Cl)cc2)[C@H]1c1ccccc1	0 (no)
O=S(=O)(c1cccs1)N1CCN(c2ncccn2)CC1	0 (no)
